# PROTOCOL: Determination of pharmacokinetic parameters following intravenous and oral administration (rats)
# Type: in vivo, male Wistar rats
# EXPERIMENTAL PARAMETERS: intravenous administration in rats
Where a name gives a salt, the structure may show the parent alone.
# key: entry, value: AUCnorm
Expressed in kg·h/L, but write only the number.

Below are worked cases with known answers.
Cc1nc2c(OCc3c(F)cccc3F)cccn2c1C(=O)NC(CN)c1ccc(F)cc1 (single isomer, unassigned; enantiomer b)	2.26
Cc1cc(OCc2c(F)cccc2F)c2nc(C)c(C(=O)NCC(C)(N)CF)n2c1 (single isomer, unassigned; enantiomer a) [Example 283]	0.67
Cc1cc(OCc2c(F)ccc(F)c2F)c2nc(C)c(C(=O)NCC(C)(N)CF)n2c1 (single isomer, unassigned; enantiomer b) [Example 286]	0.82
Cc1nc2c(OCc3c(F)cccc3F)cc(C(F)F)cn2c1C(=O)NCC(C)(N)CF (single isomer, unassigned; enantiomer b) [Example 292]	0.56

Given item `Cc1cc(OCc2c(F)ccc(F)c2F)c2nc(C)c(C(=O)NCC(C)(C)N)n2c1` , the value recorded as its AUCnorm is 0.70

Field AUCnorm (entry Cc1cc(OCc2c(F)cccc2F)c2nc(C)c(C(=O)NCC(C)(N)CF)n2c1 (racemic) [Example 282, Formate] ) reads 0.73

AUCnorm reading for C#Cc1cc(OCc2c(F)cccc2F)c2nc(C)c(C(=O)NCC(C)(N)CCC)n2c1 (stereo not shown) : 0.61

get_value(item= Cc1cc(OCc2c(F)ccc(F)c2F)c2nc(C)c(C(=O)NCC(C)(N)CCC(F)(F)F)n2c1 (single isomer, unassigned) [Example 410] , readout=AUCnorm) returns 0.21

The value of AUCnorm measured for the compound CCC(C)(N)CNC(=O)c1c(C)nc2c(OCc3c(F)ccc(F)c3F)cc(C)cn12 (single isomer, unassigned; enantiomer a) [Example 274] turned out to be 1.29

For reference, reported AUCnorm for Cc1nc2c(OCc3c(F)cccc3F)cc(Cl)cn2c1C(=O)NCC1(N)CCC1 [Example 155, trifluoroacetate] stands at 0.97

AUCnorm reading for CCC(C)(N)CNC(=O)c1c(C)nc2c(OCc3c(F)cccc3F)cc(C(F)F)cn12 (single isomer, unassigned; enantiomer a) : 0.66

The compound Cc1cc(OCc2c(F)cccc2F)c2nc(C)c(C(=O)NCC(C)(N)CCC(F)(F)F)n2c1 (single isomer, unassigned) [Example 408] showed AUCnorm equal to 0.19

Looking up Cc1cc(OCc2c(F)cccc2F)c2nc(C)c(C(=O)NCC(C)(N)C3CC3)n2c1 (single isomer, unassigned; enantiomer b) , I see its AUCnorm listed as 0.47

Notebook: CCCC(C)(N)CNC(=O)c1c(C)nc2c(OCc3c(F)ccc(F)c3F)cc(C)cn12 (single isomer, unassigned) [Example 295] , AUCnorm read as 0.56

---

Some molecules, each annotated with its measured MEC (minimal effective concentration).
# SYSTEM NAME: recombinant guanylate cyclase reporter cell line (Rattus norvegicus, UniProt P19686+P20595)
# Construct: expressed in transfected cells; host or cells: recombinant reporter cell line
# PROTOCOL: Action on recombinant guanylate cyclase reporter cell line
# Type: cell-based
# EXPERIMENTAL PARAMETERS: in some cases mean values from individual determinations
A number alone suffices; assume µM.

Cc1nc2c(OCc3c(F)cccc3F)cc(Cl)cn2c1C(=O)NCCNC(C)C	1.00
CCCC(C)(N)CNC(=O)c1c(C)nc2c(OCc3c(F)cccc3OC)cc(C)cn12 (racemic)	3.00
Cc1cc(OCc2c(F)cccc2F)c2nc(C)c(C(=O)NCC(C)(N)C(F)(F)F)n2c1 (single isomer, unassigned) [Example 241]	0.30
Cc1cc(OCc2c(F)cccc2F)c2nc(C)c(C(=O)NCC(C)(N)Cc3ncn(-c4cc(C)on4)n3)n2c1 (racemic)	0.30
Cc1nc2c(OCc3c(F)cccc3F)cccn2c1C(=O)NCCNC(C)C	1.00
Cc1cc(OCc2c(F)cccc2F)c2nc(C)c(C(=O)NCC(C)(N)C3CC3)n2c1 (single isomer, unassigned; enantiomer a) [Example 260]	0.10
Cc1cc(OCc2c(F)cccc2F)c2nc(C)c(C(=O)NCCC(C)(C)N)n2c1	0.30
Cc1cc(OCc2c(F)cccc2F)c2nc(C)c(C(=O)NC(CN)c3cccc(OC(F)(F)F)c3)n2c1 (racemic)	1.00

What the record says about Cc1nc2c(OCc3c(F)cccc3F)cccn2c1C(=O)NCC(C)(N)CCO (single isomer, unassigned; enantiomer a) : MEC (minimal effective concentration) is 5.5

Note to self: MEC (minimal effective concentration) recorded for CCC1CC(NC(=O)c2c(C)nc3c(OCc4c(F)cccc4F)cc(C)cn23)c2nc(C(F)(F)F)ccc2N1 (single isomer, unassigned; ent-8) was 0.30

---

Let's look at some molecules and their measured MEC (minimal effective concentration).
# SYSTEM NAME: recombinant guanylate cyclase reporter cell line (Rattus norvegicus, UniProt P19686+P20595)
# Construct: expressed in transfected cells; host or cells: recombinant reporter cell line
# Sequence (P19686 1-690): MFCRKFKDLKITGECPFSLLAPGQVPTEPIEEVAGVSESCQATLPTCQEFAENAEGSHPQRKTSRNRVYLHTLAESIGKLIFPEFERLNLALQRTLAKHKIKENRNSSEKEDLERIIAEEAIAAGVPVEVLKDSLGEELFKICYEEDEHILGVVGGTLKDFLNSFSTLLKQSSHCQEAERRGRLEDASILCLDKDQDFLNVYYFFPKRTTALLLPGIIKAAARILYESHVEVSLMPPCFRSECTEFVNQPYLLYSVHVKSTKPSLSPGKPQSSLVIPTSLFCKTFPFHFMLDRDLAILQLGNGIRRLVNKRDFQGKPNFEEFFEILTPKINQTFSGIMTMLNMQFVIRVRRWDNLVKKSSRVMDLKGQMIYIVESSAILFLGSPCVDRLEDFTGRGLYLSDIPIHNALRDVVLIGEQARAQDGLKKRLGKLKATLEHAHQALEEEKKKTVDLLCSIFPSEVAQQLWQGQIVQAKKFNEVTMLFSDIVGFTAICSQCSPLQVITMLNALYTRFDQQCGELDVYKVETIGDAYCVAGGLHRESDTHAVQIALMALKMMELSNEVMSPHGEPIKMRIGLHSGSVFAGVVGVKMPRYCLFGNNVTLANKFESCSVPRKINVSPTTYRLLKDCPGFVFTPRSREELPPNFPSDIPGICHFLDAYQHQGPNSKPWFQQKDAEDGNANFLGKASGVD
# Sequence (P20595 1-619): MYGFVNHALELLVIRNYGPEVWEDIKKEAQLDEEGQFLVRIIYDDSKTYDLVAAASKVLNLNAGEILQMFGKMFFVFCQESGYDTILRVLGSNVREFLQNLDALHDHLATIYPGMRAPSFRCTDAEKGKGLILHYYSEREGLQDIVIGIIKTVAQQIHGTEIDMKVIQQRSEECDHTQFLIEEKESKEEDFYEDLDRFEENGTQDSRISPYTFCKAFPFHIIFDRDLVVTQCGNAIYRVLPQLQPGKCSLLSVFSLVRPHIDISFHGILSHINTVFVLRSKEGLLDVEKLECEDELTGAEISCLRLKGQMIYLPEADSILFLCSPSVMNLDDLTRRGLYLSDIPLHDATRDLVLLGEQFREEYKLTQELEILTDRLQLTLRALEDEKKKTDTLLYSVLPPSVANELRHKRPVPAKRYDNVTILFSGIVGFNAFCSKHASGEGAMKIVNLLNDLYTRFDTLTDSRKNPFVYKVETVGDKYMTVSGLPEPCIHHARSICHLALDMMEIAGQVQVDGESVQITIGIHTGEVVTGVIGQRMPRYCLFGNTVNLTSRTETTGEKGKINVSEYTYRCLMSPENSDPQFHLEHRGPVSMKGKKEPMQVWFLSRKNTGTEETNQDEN
# PROTOCOL: Action on recombinant guanylate cyclase reporter cell line
# Format: cell-based
# EXPERIMENTAL PARAMETERS: in some cases mean values from individual determinations
Structures can show the parent of a compound that is named as a salt.
Dear colleague, please return just the value in µM, with no unit written.

Solved entries (count: 8):
Cc1nc2c(OCc3c(F)cccc3F)cc(Cl)cn2c1C(=O)NCC(C)(N)CC(C)C (single isomer, unassigned) [Example 226]	0.10
Cc1cc(OCc2c(F)cccc2F)c2nc(C)c(C(=O)NCC(C)(C)NCC(F)(F)F)n2c1	0.30
Cc1nc2c(OCc3c(F)cccc3F)cc(Cl)cn2c1C(=O)NCC1CCCCN1 (racemic) [Example 118]	1.00
Cc1nc2c(OCc3c(F)cccc3F)cccn2c1C(=O)NC1CC2CCCC(C1)N2C1CC1 (stereo not drawn)	0.10
Cc1nc2c(OCc3c(F)cccc3F)cc(Cl)cn2c1C(=O)NCCC(C)(C)N	0.30
CCCC[C@H](CNCCOC)NC(=O)c1c(C)nc2c(OCc3c(F)cccc3F)cccn12	1.00
Cc1cc(OCc2c(F)cccc2F)c2nc(C)c(C(=O)NCC(C)(N)CCC(F)(F)F)n2c1 (single isomer, unassigned) [Example 409]	0.03
Cc1nc2c(OCc3c(F)cccc3F)cccn2c1C(=O)NCC(N)C(C)C (single isomer, unassigned) [Example 229]	1.00

Form field MEC (minimal effective concentration), entry Cc1nc2c(OCc3c(F)cccc3F)cccn2c1C(=O)NCC(C)CN (single isomer, unassigned) [Example 95, dihydrochloride] : 1.00

Input Cc1nc2c(OCc3c(F)cccc3F)cccn2c1C(=O)NCC1CCc2ccccc2N1 (racemic) . Output MEC (minimal effective concentration): 1.00

Looking up CCCC(C)(N)CNC(=O)c1c(C)nc2c(OCc3c(F)cccc3F)cc(CF)cn12 (stereo not drawn) , I found its MEC (minimal effective concentration) recorded as 0.10

Entry CCCC(C)(N)CNC(=O)c1c(C)nc2c(OCc3ccccc3Br)cc(C)cn12 (stereo not drawn) ; MEC (minimal effective concentration) = 3.00

The measured MEC (minimal effective concentration) associated with `Cc1cc(OCc2c(F)cccc2F)c2nc(C)c(C(=O)NCCN3CCC(F)(F)CC3)n2c1` reads 0.30

// MEC (minimal effective concentration) lookup, molecule = Cc1cc(OCc2c(F)cccc2F)c2nc(C)c(C(=O)NCC(C)(N)Cc3ccc(F)cc3)n2c1 (racemic) , result: 0.10

The molecule Cc1cc(OCc2c(F)cccc2F)c2nc(C)c(C(=O)NC3CCCCNC3)n2c1 (racemic) showed MEC (minimal effective concentration) equal to 0.30
